The reported measurements were obtained from PubChem BioAssay.

- METHOD_NOTES: small-molecule microarray binders of probe aDKK1, primary screen, biochemical, biotinylated probe, 635/667 nm fluorescence (AID 1099);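 further: score merges 667nm spot fluorescence with signal to noise across triplicate slides; reference of the scale not given here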
- CONDITION_INFO: higher = more signal
Recorded composite z-score, one value per entry.
Answer using only a numeral; do not append any unit.

MOLECULE: C=C1C2CC3C(=C4C(CO[C@@H]4[C@H]4CCCN4S(=O)(=O)c4ccccc4[N+](=O)[O-])C4C(=O)N(C)C(=O)C34)CC2C(=O)N1C (some centres not stated)
composite z-score: -0.2
--
MOLECULE: COCCOC(=O)N1C(=O)[C@@]2(c3cc(C#CCC(C(=O)OC)C(=O)OC)ccc31)[C@H](c1ccc(OCCO)cc1)N1[C@H](c3ccccc3)[C@H](c3ccccc3)OC(=O)[C@H]1[C@@H]2C(=O)N1CCN(c2ncccn2)CC1
composite z-score: 0.0926
--
MOLECULE: CCOC(=O)C1=CC[C@@H](c2ccccc2C(F)(F)F)N(S(=O)(=O)c2ccc(C)cc2)C1
composite z-score: 1.27
--
MOLECULE: C[C@H]1C2=C3C(CC[C@H]4C(OCc5ccc(F)cc5C(F)(F)F)OC[C@](C)([C@@H]34)N(C(=O)OC(C)(C)C)C2)C2COC(=O)OCC21 (some centres not stated)
composite z-score: 0.457

The molecule listed as `CO[C@H]1O[C@H](CO)[C@@H](OC(=O)Nc2ccc(Oc3ccccc3)cc2)[C@H](OC(=O)Nc2ccccc2-c2ccccc2)[C@@H]1OC(=O)Nc1ccccc1-c1ccccc1` shows composite z-score equal to 0.686

// composite z-score lookup, molecule = `O=C1O[C@@H](c2ccccc2)[C@@H](c2ccccc2)N2[C@@H](c3ccccc3OCCO)[C@]3(C(=O)Nc4ccc(C#CC5=CCCCC5)cc43)[C@@H](C(=O)NC[C@H](O)c3ccccc3)[C@H]12` , result: -0.108

// `C=C(/C=C/CNS(=O)(=O)c1ccc(C)cc1)[C@H](O)[C@H]1CCCN1S(=O)(=O)c1ccccc1[N+](=O)[O-]` : composite z-score value = 0.0684

Measured composite z-score of `C=CCN1C(=O)[C@@]2(CCC(=O)OC(C)(C)C)N=C(c3ccc(OCCCO)cc3)O[C@H]2c2ccccc21` : 0.549

composite z-score reported for this molecule `CC(C)(C)OC(=O)CC[C@@]1(C(=O)O)N=C(c2ccc(OCCCO)cc2)O[C@@H]1c1ccccc1CN=[N+]=[N-]` : 1

Looking up `O=C(CS)NCCCCCCNC(=O)[C@H]1C[C@H]2C(=O)N[C@@H](Cc3ccccc3)C(=O)N2[C@H]1c1cccc(OCCO)c1` , I see its composite z-score listed as -0.0581

Form: molecule = `C=CCOC(=O)[C@@H]1[C@H]2C(=O)O[C@H](c3ccccc3)[C@H](c3ccccc3)N2[C@H](c2ccc(OCCOC(=O)[C@H]3C[C@H]4C(=O)N[C@@H](CCCC[N+](C)(C)C)C(=O)N4[C@H]3c3ccc(O)cc3)cc2)[C@@]12C(=O)Nc1ccc(I)cc12` ; composite z-score = -0.144

composite z-score reading for C=CCC(OC(C)=O)[C@@H]1[C@@H](N(Cc2cc3ccccc3o2)C(=O)c2ccc(C)cc2)c2cc(OCCCO)ccc2N1C(=O)Cc1ccc2ccccc2c1 (some centres not stated) : 0.258
